# Target or test system: T1, NF90dsRBDs-deltaNLS (mouse, UniProt Q9Z1X4 393-592)
# T1 sequence: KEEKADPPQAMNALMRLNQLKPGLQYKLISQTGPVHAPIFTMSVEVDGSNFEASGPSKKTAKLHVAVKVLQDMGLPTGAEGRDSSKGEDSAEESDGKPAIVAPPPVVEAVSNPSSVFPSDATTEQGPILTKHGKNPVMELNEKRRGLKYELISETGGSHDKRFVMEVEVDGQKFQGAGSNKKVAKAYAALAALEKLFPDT
# Test summary: ITC; apparent Kd; unit as printed (mM), possibly uM misprint; 1:2 RNA:protein; EMSA: 20 mM HEPES pH 7.5, 150 mM K acetate, on ice, 1 uM RNA (competition 0.5 uM complex); FA: same buffer, 23.5 C, 250 nM RNA; ITC: 20 mM HEPES pH 7.5, 50 mM NaCl, 25 C
# Applied conditions: protein: recombinant; tags: GST removed by TEV; chain copies: 2; blunt
pKd: −log10 of the molar value.
Assay endpoint: pKd

18mer dsRNA, unmodified (dsRNA) RNA 1: UCACUUUCAUAAUGCUGG RNA 2: CCAGCAUUAUGAAAGUGA    ~2.62

Could you now look at the following binder, please?
Identify the reported pKd for the following entry. 18mer dsRNA, 2'F strand (dsRNA, 2'-F ribose uniformly on strand 1) RNA 1: UCACUUUCAUAAUGCUGG RNA 2: CCAGCAUUAUGAAAGUGA ~2.62

meta.source: paper PMC4770229
